test: Water solubility of solvents (OECD 105); assay type: physicochemical; conditions: water, thermodynamic from solid, solvent in water
observable: solubility

Sample answers from the record:
CCCCCCCCCC(=O)N(C)C [AGNIQUE ® AMD10, Capric acid dimethylamide]	< 1000 µg/mL
CCCCCCCCN1CCCC1=O	< 2000 µg/mL

Continue with the molecule presented below.
Suppose we examine the molecule `CCCCCCCCCCCCN1CCCC1=O` ; what solubility value has been reported?
< 2000 µg/mL

====

observable: Fully Soluble in AGNIQUE AMD10? (2% w/w urea derivative)

O=C1NCCCN1 [N,N′-trimethylene urea]	No
CCNC(=O)NCC [1,3-diethylurea]	Yes
NC(=O)Nc1ccccc1 [N-phenyl urea]	Yes
CCCCNC(=S)NCCCC [N,N′-dibutylthiourea]	Yes

Continue with the compound presented below.
Suppose we examine the compound O=C(NCO)NCO [N,N′-bis(hydroxymethyl) urea] ; what Fully Soluble in AGNIQUE AMD10? (2% w/w urea derivative) value has been reported?
No

Source listed as patent US11629105B2.
